Assay: Pharmacokinetics following single intravenous and oral gavage dosing (AUC0-24h)
Type: in vivo
Conditions: mouse, plasma; single oral dose 50 mg/Kg, male CD-1 mice

MOL: CCc1c(F)ccc2cc(O)cc(-c3ncc4c(N5CCC[C@@](C)(O)C5)nc(OCC5(CN6CCC7(CC6)CC(N6CCN(c8ccc9c(c8)CN([C@H]8CCC(=O)NC8=O)C9=O)CC6)C7)CC5)nc4c3F)c12
AUC(0-t), ng·h/mL: 598

MOL: CCc1c(F)ccc2cc(O)cc(-c3ncc4c(N5CCC[C@@](C)(O)C5)nc(OCC5(CN6CCC7(CCC(N8CCN(c9ccc%10c(c9)CN([C@H]9CCC(=O)NC9=O)C%10=O)CC8)CC7)CC6)CC5)nc4c3F)c12
AUC(0-t), ng·h/mL: 255

MOL: CCc1c(F)ccc2cc(O)cc(-c3ncc4c(N5CCC[C@@](C)(O)C5)nc(OCC5(CN6CCC7(CC6)CC(F)(CN6CCN(c8ccc9c(c8)CN([C@H]8CCC(=O)NC8=O)C9=O)CC6)C7)CC5)nc4c3F)c12
AUC(0-t), ng·h/mL: 1940

====

Molecular target: KRAS-G12V/RAF1 (Homo sapiens (Human), UniProt P01116, G12V)
Sequence (P01116-2 other isoform, or with tags, fused parts or gaps G12V): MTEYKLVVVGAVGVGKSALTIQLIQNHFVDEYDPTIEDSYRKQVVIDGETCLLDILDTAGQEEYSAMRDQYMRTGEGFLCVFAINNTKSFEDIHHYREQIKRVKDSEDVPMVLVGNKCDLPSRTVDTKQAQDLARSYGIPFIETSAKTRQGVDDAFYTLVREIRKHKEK
Test: KRAS/RAF1 binding inhibition assay (AlphaScreen)

COMPOUND: CCc1c(F)ccc2cc(O)cc(-c3ncc4c(N5CCOC[C@](C)(O)C5)nc(OCC5(CN6CCC7(CC6)CC(CN6CCN(c8ccc9c(c8)CN([C@H]8CCC(=O)NC8=O)C9=O)CC6)C7)CC5)nc4c3F)c12 [Compound 113]
IC50: > 200 nM
//
COMPOUND: CCc1c(F)ccc2cc(O)cc(-c3ncc4c(N5CCC[C@@](C)(O)C5)nc(OCC5(CN6CCC7(CC6)CC(F)(C6CCN(c8ccc9c(c8)CN(C8CCC(=O)NC8=O)C9=O)CC6)C7)CC5)nc4c3F)c12 (some centres unmarked) [Compound 185]
IC50: 20 to 200 nM
//
COMPOUND: CCc1c(F)ccc2cc(N)cc(-c3ncc4c(N5CCC[C@@](C)(O)C5)nc(OCC5(CN6CCC(CN7CCN(c8ccc9c(c8)CN([C@H]8CCC(=O)NC8=O)C9=O)CC7)CC6)CC5)nc4c3F)c12 [Compound 89]
IC50: > 200 nM
//
COMPOUND: C[C@@]1(O)CCCN(c2nc(OCC3(CN4CC(N5CC(N6CCN(c7ccc8c(c7)CN([C@H]7CCC(=O)NC7=O)C8=O)CC6)C5)C4)CC3)nc3c(F)c(-c4cc(O)cc5ccc(F)c(F)c45)ncc23)C1 [Compound 169]
IC50: 20 to 200 nM
//
COMPOUND: CCc1c(F)ccc2cc(O)cc(-c3ncc4c(N5CCC[C@@](C)(O)C5)nc(OCC5(CN6CC7(CCC(N8CCN(c9cc(F)c(C%10CCC(=O)NC%10=O)c(F)c9)CC8)CC7)C6)CC5)nc4c3F)c12 (some centres unmarked) [Compound 60]
IC50: 20 to 200 nM
//
COMPOUND: CCc1cccc2cc(O)cc(-c3ncc4c(N5CCC[C@@](C)(O)C5)nc(OCC5(CN6CCC(F)(CN7CC8(CCN(c9ccc%10c(c9)CN(C9CCC(=O)NC9=O)C%10=O)CC8)C7)CC6)CC5)nc4c3F)c12 (some centres unmarked) [Compound 28]
IC50: 20 to 200 nM
//
COMPOUND: CCc1c(F)ccc2cc(O)cc(-c3ncc4c(N5CCOCC(C)(O)C5)nc(OCC5(CN6CCC7(CC6)CC(CN6CCN(c8ccc9c(c8)CN([C@H]8CCC(=O)NC8=O)C9=O)CC6)C7)CC5)nc4c3F)c12 (mixture of isomers) [Compound 91]
IC50: 20 to 200 nM
//
COMPOUND: CCc1c(F)ccc2cc(O)cc(-c3ncc4c(N5CCC[C@@](C)(O)C5)nc(OCC5(CN6CC7(CCC(F)(CN8CCN(c9ccc%10c(c9)CN([C@H]9CCC(=O)NC9=O)C%10=O)CC8)CC7)C6)CC5)nc4c3F)c12 [Compound 178]
IC50: 20 to 200 nM

Where do these numbers come from? They come from patent US20250092039A1.
